tested on: K4 kissing-loop RNA reporter; test: apparent KD of K4 kissing-loop reporter; higher = weaker reporter binding; details: Eterna round: R107; input ligand: theophylline 20 uM;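 note: bound reporter read as fluorescence of individual clusters on recovered sequencing chips by microscopy, with normalized cluster intensities fitted with a binding model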
endpoint_label: apparent KD of K4 kissing-loop reporter (nM)
One number for each entry, in nM.

Solved cases below.
seq_string: GAAUGAAAUAUCUGGCCCUAUCAGAAUUGGAAGGAUAUGACGGUCAUCAGAAGGUCCAACUCGUAGUGAUGUUGCGGGUUUUAAA [theeternabot_exclusion_KL_FMN_A_21]
uom: nM
apparent KD of K4 kissing-loop reporter: 42.8

seq_string: UGUCAUUGGUCUGAUACCAGAAGAUAUUCUGGAGUGAUGUUCCAAGUACGACAAAGUCGCUUCCCUUGGCAGCAGACCGAUGACU [TheoBS 20 #SwitchBubble 13 #StaticStem]
uom: nM
apparent KD of K4 kissing-loop reporter: 501

seq_string: GAGGUACAGGCGGCCGCCACUAGUGAUGUUAGUGAUAAAAGAUAUAGUAAAUAUCGGCAUGUAGAUAGGACCGGGCCUGAUGGAG [ptvcmullin]
uom: nM
apparent KD of K4 kissing-loop reporter: 234

List the reported apparent KD of K4 kissing-loop reporter of each sequence below.
1. AAAAUAAUCCAGUGAUGUUGGUAUCCAGAUACCAGCCAGGAAACUGGCCCUUGGCAGCUGUGGACGUACAAAAUAAGUACGUCCU [#OpenEnded 10 #StaticStem #K4Early]
2. UAGCGGUGGAGGCCACCGCUAUUCUGAGAAGGAGCGCAGAUGACUGCAGGUAGGUCGCUUAGAGCUUGCAGUGAUGUUGCAAGUU [Araatlaqu]
3. AUCUAUGAGCGAGGAUAUGCAUGACGCGAGUGAUGUUCGCGAUGUGGGCGUGAUUAGUAAUAUGAAGCAGAAGGCGCACUCAUGA [Exclusion - FMW B / A]
4. UUAGAGGCCCAGUGAUGUUGGGUGGUUGGGCGAGGACCGGUACGGCCGCCACUCGCCGCGGAACUAUCGGAAUCUCGCUCGGCUA [Aninxearqu]
5. UUAUAUCUCUGACUUUCACUUUGCGUAUCUGAGGAUAUCUGAAUUCAGAGAAGGCAGUGAUGUUGCUUUGCUGUGUGUCUGAGAA [AK2 Exc FMN A]
6. GGGCAUGUUAAAGGAUAUAGCAGGUGAUACAAGAAAGUGAGUGAUGUUUAUGUAGAUGAUGAUAUGUUAGAAGGUUAACAAAACC [abcdefghijklm]
7. UUUAAAUAUAGUGAUGUUAUAUAACAAUGACGAGGACCGGUACGGCCGCCACUCGAGAGAGAUAAUGGUCGUUAGAAUCUAACGC [AstrosSSTryA#5]
8. UGCUUAAUGGAAGGAUAUUAGGGUUCGACCGCGUAUCAUUGUUAGUCUGGCCAGUGAUGUUGGCCUUAAGAAGGUCCGCUACGGU [theeternabot_exclusion_KL_FMN_B_27]

1. 611
2. 223
3. 116
4. 309
5. 499
6. 529
7. 963
8. 204

For the sequence CUGGGUUGACGAAAAGUCAACAAAAGAGAAGGAGCGCACGAAAGUGCAGGUAGGUCGCUCAAUCCAGUGAUGUUGGGUCAUCCAG [#SwitchBubble 14 #K4Late] , what apparent KD of K4 kissing-loop reporter is on record?
1110

====

test system: MS2 coat protein; assay: apparent KD of MS2 coat protein; designed switch direction (-1 OFF switch, 1 ON switch): 1; higher = weaker reporter binding; conditions: input ligand: FMN 200 uM
Label true when apparent KD of MS2 coat protein is at or above 200 nM; anything below gets false.

seq_string: GAGAGAUGGCGAGGAUAUUCGGUGAUAAUGAUAGAAGAAGGCGCUGACAUGAGGAUCACCCAUGUGGGAAUAAUCCAGAGAGAG [Parity 18 - Jieux - Same State NG 1] (Eterna round: R96, puzzle: Same State NG 1)
class: true

seq_string: AAACGGCCCAACGGAGGGCCACAUGAGGAUCACCCAUGUACAUAGGAUAUCACGCCAACGAGGCGUGAGAAGGGUGAUUAAAAC [Bisomaor] (Eterna round: R96, puzzle: Same State NG 3)
class: false

seq_string: UUAUCCUUUUUUUACAUGAGGAUCACCCAUGUUUUUCUUACGUAGGAUAUCGUUGUUUUUUUUUACGAGAAGGACGUAGUAAGA [JR_SSND3_Sub061] (Eterna round: R96, puzzle: Same State NG 3)
class: false

seq_string: GCGAGCGUACUUGCAACAUGAGGAUCACCCAUGUUAACUGGACAGGAUAUGGUACCGUUUCGGUACCAGAAGGGUUCCUCAAUG [JL SSNG3 3.62] (Eterna round: R96, puzzle: Same State NG 3)
class: true

seq_string: GCUCGCGGCACAGGAUAUGGGUGCCUGUACAUGAGGAUCACCCAUGUUAAGGGACGGAUUACGAACCAGAAGGGUGUGGCAAGC [Reonisma] (Eterna round: R96, puzzle: Same State NG 2)
class: false

seq_string: GGCGAAGGAGAAGGAUAUAUCUUGGACAUAUAGAUGCACAUGAGGAUCACCCAUGUCAUCAUGGGAUAGAAGGUCUGCUUCACC [Eternabot solution 33] (Eterna round: R96, puzzle: Same State NG 2)
class: false

seq_string: CCGAAAGGAGUAGGAUAUGUAGGAUAUUCCUACAUGAGGAUCACCCAUGUUCGCAUGGAAGAAGGACAGAAGGACACGGAAACG [pwkr ssNG2 2FMN + 1F5.14] (Eterna round: R96, puzzle: Same State NG 2)
class: true

seq_string: UUACUCAUGUAAGGAUAUGCAGCCGAAACGGCUGCAGAAGGUACUAAAAUACAUGAGGAUCACCCAUGUCUAAUUAAUUAAGAC [Mat - Same State NG 1 - JL mod - D84] (Eterna round: R96, puzzle: Same State NG 1)
class: false

Lab note: next sequence to report on.
Is it the case that AUUUUUAAUGCAGGAUAUGAUUAACAUGAGGAUCACCCAUGUGGUGUUGUGAGUAAGGAGAGUGAUCAGAAGGGCAUUUUUAUU [JMF's solution 84] (Eterna round: R96, puzzle: Same State NG 2) has apparent KD of MS2 coat protein reaching or exceeding 200 nM?
true
